Source listed as ChEMBL document CHEMBL1201862.

- Tested on: HOP-62
- method-summary: NCI tumour cell line growth inhibition, 48 h
Active and inactive are the calls of the source. No stated cut-off is given here; in the data, active = GI50 up to about 1.1 µM and inactive = higher.
// one of yes (1) = active, no (0) = inactive, no free text

Below are worked cases with known answers.
Incoming: Record request — test call for CC1(C)O[C@H]2[C@@H]3N=C(c4ccccc4)O[C@@H]3C=C[C@H]2O1
Outgoing: no (0)

Incoming: Record request — test call for CCOC(=O)C(NC(=O)CC)(Nc1ccc(S(=O)(=O)Nc2ccc(OC)nn2)cc1)C(F)(F)F (centres undefined)
Outgoing: no (0)

Incoming: Record request — test call for C=CCOn1c(C=C)nc2c(C)cccc21
Outgoing: no (0)

Incoming: Record request — test call for CC1C(c2ccccc2)O[B-](F)(c2ccccc2)[NH+]1C (centres undefined)
Outgoing: no (0)

Incoming: Record request — test call for O=C1NC(N2CCCC(CO)C2)=N/C1=C\c1cccs1 (centres undefined)
Outgoing: no (0)

More entries:
Incoming: Record request — test call for COc1cc(C(=O)c2cocc2C(=O)c2ccc3c(c2)OCO3)cc(OC)c1OC
Outgoing: yes (1)

Incoming: Record request — test call for O=C(O)Cc1ccc2c(c1O)C(=O)c1c(ccc(CC(=O)O)c1O)C2=O
Outgoing: no (0)

Incoming: Record request — test call for CC[P+]1(CC)CCCC1
Outgoing: no (0)

Incoming: Record request — test call for CCCCc1c2c(nc3c1CCCC3O)CCCC2 (centres undefined)
Outgoing: no (0)

Incoming: Record request — test call for O=c1[nH]cnc2c(C3OC(CO)C(O)C3O)c[nH]c12 (centres undefined)
Outgoing: no (0)

Incoming: Record request — test call for CC1=C(C(=O)Nc2ccccc2)C(c2ccc(C3C(C(=O)Nc4ccccc4)=C(C)NC(C)=C3C(=O)Nc3ccccc3)cc2)C(C(=O)Nc2ccccc2)=C(C)N1
Outgoing: no (0)

Incoming: Record request — test call for CC(C)c1ccc(/C=C/c2cc(C(=O)NNC(=O)NC3CCCCC3)nc(S)n2)cc1
Outgoing: no (0)

Incoming: Record request — test call for Cn1c(=O)n2n(c1=O)C([S+]([O-])c1ccccc1)C2 (centres undefined)
Outgoing: no (0)

Incoming: Record request — test call for COC1CC(O[C@H]2CC[C@@]3(C)C(=CCC4(O)C3CCC35C(=O)OC6(C)O[C@@]43CCC65)C2)OC(C)C1O (some centres undefined)
Outgoing: no (0)

====

For each entry below, report its GI50 value.
- Test system: NCI-H460
- method-summary: NCI tumour cell line growth inhibition, 48 h
The source made the active and inactive calls. Cut-off read from the data, not from the text of the source: active = GI50 up to about 1.1 µM and inactive = higher.

Some entries whose results are on file:
Incoming: For the compound COC(=O)c1ccccc1C1CN=NC12Cc1c(ccc3c1CCC3)C2=O (centres undefined) , report GI50.
Outgoing: > 100 µM (inactive)

Incoming: For the compound O=c1cc(-c2ccccc2)nc(-n2[nH]c3c(c2=O)CCCC3)[nH]1 , report GI50.
Outgoing: 1.08 µM (active)

Incoming: For the compound O=c1[nH]cnc2c(C3OC(CO)C(O)C3O)c[nH]c12 (centres undefined) , report GI50.
Outgoing: > 100 µM (inactive)

Your task in this section: give GI50 for each listed record.
1. CC1=CCC[C@]2(C)C1=CC(=O)O[C@H]2c1ccoc1
2. COc1ccc(NC(=O)CC(=O)n2nc(C)c(/N=N/c3ccc(C)c(C)c3)c2C)cc1
3. CCOC(=O)C(NC(=O)CC)(Nc1ccc(S(=O)(=O)Nc2ccc(OC)nn2)cc1)C(F)(F)F (centres undefined)

Outgoing:
> 100 µM (inactive)
> 100 µM (inactive)
> 100 µM (inactive)
